Data provenance: ChEMBL document CHEMBL2439947

system: Lipid bilayer; test: Binding affinity to DPPC liposomes after 2 hrs by double reciprocal plot analysis
Some molecules, each annotated with its measured Kapp.
Expressed in M⁻¹, but write only the number.

# annotated cases, reported Kapp shown
Cc1ccc(C(=O)O[C@@](Cn2cncn2)(c2ccc(F)cc2F)[C@@H](C)c2ncncc2F)cc1 [VORICONAZOLE TOLUATE] | 0.871
COc1ccc(C(=O)O[C@@](Cn2cncn2)(c2ccc(F)cc2F)[C@@H](C)c2ncncc2F)cc1 [VORICONAZOLE P-METHOXY BENZOATE] | 1.16
C[C@@H](c1ncncc1F)[C@](O)(Cn1cncn1)c1ccc(F)cc1F | 0.0543
C[C@@H](c1ncncc1F)[C@@](Cn1cncn1)(OC(=O)c1ccc([N+](=O)[O-])cc1)c1ccc(F)cc1F [VORICONAZOLE P-NITRO BENZOATE] | 0.505

# next molecule below
query: Supply reported Kapp belonging to this molecule: C[C@@H](c1ncncc1F)[C@@](Cn1cncn1)(OC(=O)c1ccccc1)c1ccc(F)cc1F [VORICONAZOLE BENZOATE]
result: 1.22
